- test.details: qHTS assay to identify small molecule antagonists of the farnesoid-X-receptor (FXR) signaling pathway - cell viability counter screen (AID 743221); also: nearly all actives have a fitted effect of over 50% in size
- measurement.context: FXR-bla HEK293T viability, CellTiter-Glo luminescence, 16 h; series mostly up to 62.6 µM
Results filed as inconclusive are left out. Calls of active or inactive are those of the source. Calls follow the shape of the dose curve; as a rule, active = well fitted cell-killing curve with a large enough effect in the repeat runs (not every such curve was filed as active); inconclusive = weak or mixed curves, or effect the other way; inactive = no such curve, though single readings can be large or run the other way.
Outcome codes: t for active, f for inactive

# compound, class.assignment
data = [
    ("Oc1ccc(Cl)cc1Sc1cc(Cl)ccc1O", "t"),
    ("O=C(O)c1cc(O)c2c(c1)C(=O)c1cccc(O)c1C2=O", "f"),
    ("CN(C)C(=O)C1(N2CCCCC2)CCN(CC[C@@]2(c3ccc(Cl)c(Cl)c3)CN(C(=O)c3ccccc3)CCO2)CC1", "t"),
    ("Oc1cccc2cc3cccc(O)c3c(O)c12", "f"),
    ("CCCCCCCC[P+](CCCCCCCC)(CCCCCCCC)CCCCCCCC", "t"),
    ("CCN(CC)CCCC(C)Nc1c2ccc(Cl)cc2nc2ccc(OC)cc12 (centres undefined)", "t"),
    ("NC(=O)N1C(=O)C(C(=O)c2cc(Cl)cs2)c2cc(F)c(Cl)cc21 (centres undefined)", "t"),
    ("CCC(C)Nc1ccc(NC(C)CC)cc1 (centres undefined)", "t"),
    ("CCOC(=O)/C=C(C)/C=C/C=C(C)/C=C/c1c(C)cc(OC)c(C)c1C", "f"),
    ("Cc1[nH]nc2c1N=C(c1ccccc1Cl)c1cc([N+](=O)[O-])ccc1N2", "f"),
    ("Oc1cc2ccccc2c2ccccc12", "t"),
    ("CCCCCCCCCCCCCCCC(=O)OC[C@H](O)[C@H]1OC(=O)C(O)=C1O", "f"),
    ("CC/C(=C(\\c1ccc(O)cc1)c1ccc(OCCN(C)C)cc1)c1ccccc1", "t"),
    ("CC1=C(/C=C/C(C)=C/C=C/C(C)=C/C=O)C(C)(C)CCC1", "t"),
    ("CCCC(=O)OC[C@@H](OC(=O)CCC)[C@@H](OC(=O)CCC)[C@H](Cn1c2nc(=O)[nH]c(=O)c-2nc2cc(C)c(C)cc21)OC(=O)CCC", "f"),
    ("CC(C)(C)c1ccc(C(=O)O)cc1", "f"),
    ("O=C(Oc1ccccc1)c1ccccc1C(=O)Oc1ccccc1", "f"),
    ("Clc1ccc2n[nH]nc2c1", "f"),
    ("O=C(OCC1CO1)C1CCCCC1C(=O)OCC1CO1 (centres undefined)", "f"),
    ("Cc1cc(=O)oc2cc(N(C)C)ccc12", "f"),
    ("N/C(=N\\N=C\\c1ccc(Cl)cc1)N/N=C/c1ccc(Cl)cc1", "f"),
    ("CC(C)(C)C(=O)OCOC(=O)C1N2C(=O)CC2S(=O)(=O)C1(C)C (centres undefined)", "f"),
    ("C=CC(=O)OCC(CO)(COCC(COC(=O)C=C)(COC(=O)C=C)COC(=O)C=C)COC(=O)C=C", "t"),
    ("CCCCCOC(=O)CCCC", "f"),
    ("CC(C)=CCOc1ccc(/C=C/C(=O)c2ccc(OCC=C(C)C)cc2OCC(=O)O)cc1", "t"),
    ("NNC(=O)c1cccc(C(=O)NN)c1", "f"),
    ("CN(C)[C@@H]1C(=O)C(C(N)=O)=C(O)[C@@]2(O)C(=O)C3=C(O)c4c(O)cccc4C[C@H]3C[C@@H]12", "f"),
    ("CC1=NC(C)OC1C (centres undefined)", "f"),
    ("NC(=O)C1(N2CCCCC2)CCN(CCCN2c3ccccc3CCc3ccc(Cl)cc32)CC1", "t"),
    ("c1ccc(CSCc2ccccc2)cc1", "f"),
    ("Cc1cc(O)c2ccccc2c1O", "t"),
    ("OCCN(CCO)c1nc(N2CCCCC2)c2nc(N(CCO)CCO)nc(N3CCCCC3)c2n1", "f"),
    ("[O-][n+]1ccccc1SSc1cccc[n+]1[O-]", "t"),
    ("Cc1cc(O)c(Cl)c(C)c1Cl", "t"),
    ("Cc1cc(O)c(C(C)(C)C)cc1C(C)(C)C", "t"),
    ("Cc1nc(-c2ccc3c(c2)CCN(CCC2CCC(NC(=O)/C=C/c4ccc(F)cc4)CC2)CC3)no1 (centres undefined)", "f"),
    ("CCCCN(CCCC)C(=O)N(CCCC)CCCC", "f"),
    ("O=C(NO)C1(NS(=O)(=O)c2ccc(Oc3ccc(F)cc3)cc2)CCOCC1", "f"),
    ("O=C(Nc1cccc(C(F)(F)F)c1)c1cc(Br)cc(Br)c1O", "t"),
]
